# subject.of.test: CaCyk3
# run.description: SPOT peptide array binding signal intensity (averaged, normalized) (arbitrary units (background-subtracted, floor 0; scale differs between SH3 domains)); higher = stronger binding of the SH3 domain to the peptide
// reported SPOT peptide array binding signal intensity for each item listed
Respond numerically, and do not add a unit to the figure.

Q: Need SPOT peptide array binding signal intensity of `PHNPSPFFPPPDFND` , thanks.
Result: 1

Q: Same for `FVLRYYILIPHEQWD`
Result: 5

Q: Same for `RRRIAYPFYPFKKLG`
Result: 1
